All figures here come from patent US20160297889A1.

Target: T1, CAPRIN-1 protein expressed on the membrane surface of human cancer cells (human, UniProt Q14444 2-709)
T1 sequence (looked up): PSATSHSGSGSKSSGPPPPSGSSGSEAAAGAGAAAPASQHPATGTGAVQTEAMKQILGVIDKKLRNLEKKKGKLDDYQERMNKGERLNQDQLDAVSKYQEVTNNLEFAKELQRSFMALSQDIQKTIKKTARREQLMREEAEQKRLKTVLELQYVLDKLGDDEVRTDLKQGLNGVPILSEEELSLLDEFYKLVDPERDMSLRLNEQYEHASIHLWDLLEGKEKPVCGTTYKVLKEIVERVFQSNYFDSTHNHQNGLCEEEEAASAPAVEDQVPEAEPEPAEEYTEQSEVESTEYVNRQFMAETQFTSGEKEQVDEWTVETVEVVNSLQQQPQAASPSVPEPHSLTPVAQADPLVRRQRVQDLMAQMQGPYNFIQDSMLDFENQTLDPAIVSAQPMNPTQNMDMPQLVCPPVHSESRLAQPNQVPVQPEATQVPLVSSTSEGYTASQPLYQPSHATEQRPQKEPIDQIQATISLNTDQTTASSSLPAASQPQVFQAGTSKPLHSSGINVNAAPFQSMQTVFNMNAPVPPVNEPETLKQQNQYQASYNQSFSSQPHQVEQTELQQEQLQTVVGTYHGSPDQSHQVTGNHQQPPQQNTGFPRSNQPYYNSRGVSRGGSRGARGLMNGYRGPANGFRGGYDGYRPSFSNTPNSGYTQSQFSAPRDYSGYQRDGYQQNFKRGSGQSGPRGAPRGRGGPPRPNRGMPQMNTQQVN
Assay: cell-based or functional assay
value_type: ADCC cytotoxic activity (51Cr release) on HT-29

binder	assay_value
humanized antibody #10 (antibody, V domains shown) VH: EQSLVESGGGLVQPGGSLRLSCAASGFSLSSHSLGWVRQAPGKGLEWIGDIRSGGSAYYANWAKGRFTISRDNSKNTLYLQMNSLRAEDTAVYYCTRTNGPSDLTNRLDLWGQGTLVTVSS VL: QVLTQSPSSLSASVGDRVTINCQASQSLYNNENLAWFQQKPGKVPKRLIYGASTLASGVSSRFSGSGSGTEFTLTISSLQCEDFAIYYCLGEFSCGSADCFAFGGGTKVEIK	≥ 43%
